Entries and their Ki values follow.
- SYSTEM: Aurora B (Homo sapiens)
- Construct: Active Aurora B enzyme (recombinant residues 1-344)
- Sequence (Q96GD4 whole entry, the tested form may be a part): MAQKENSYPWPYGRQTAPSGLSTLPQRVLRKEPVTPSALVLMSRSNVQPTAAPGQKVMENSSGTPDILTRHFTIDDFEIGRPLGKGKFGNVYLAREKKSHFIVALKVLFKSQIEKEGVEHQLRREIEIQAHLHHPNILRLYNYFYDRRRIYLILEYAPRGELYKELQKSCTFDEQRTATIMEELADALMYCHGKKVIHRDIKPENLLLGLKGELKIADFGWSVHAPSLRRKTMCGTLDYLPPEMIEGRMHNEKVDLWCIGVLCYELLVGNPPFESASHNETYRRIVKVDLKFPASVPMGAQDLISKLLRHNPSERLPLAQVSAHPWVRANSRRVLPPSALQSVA
- Sequence (Q9NQS7 826-918 partner limits assumed): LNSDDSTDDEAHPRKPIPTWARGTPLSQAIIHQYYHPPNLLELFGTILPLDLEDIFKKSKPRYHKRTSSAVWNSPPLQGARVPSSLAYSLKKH
- METHOD NOTES: Aurora B enzyme inhibition (time-resolved fluorescence, histone H3 peptide)
- CONDITION INFO: 1 mM ATP
MEASUREMENT LABEL: Ki

COMPOUND	EXPERIMENTAL RESULT
Cn1cc(Nc2ncc(C(F)(F)F)c(N[C@@H]3CC=CC[C@@H]3C(N)=O)n2)cn1.Cn1cc(Nc2ncc(C(F)(F)F)c(N[C@H]3CC=CC[C@H]3C(N)=O)n2)cn1 (mixture of isomers)	< 100 nM
CS(=O)(=O)CCn1cc(Nc2ncc(Cl)c(N[C@H]3[C@@H](C(N)=O)[C@@H]4C=C[C@H]3C4)n2)cn1	< 100 nM
CCn1cc(Nc2ncc(Cl)c(N[C@H]3[C@@H](C(N)=O)[C@@H]4C=C[C@H]3C4)n2)cn1 [Example 42]	< 100 nM
Cn1cc(Nc2ncc(Cl)c(N[C@@H]3[C@H](C(N)=O)[C@H]4CC[C@@H]3O4)n2)cn1.Cn1cc(Nc2ncc(Cl)c(N[C@H]3[C@@H](C(N)=O)[C@@H]4CC[C@H]3O4)n2)cn1 (mixture of isomers)	< 100 nM
CNC(=O)Cn1cc(Nc2ncc(Cl)c(NC3C4CCC(C4)C3C(N)=O)n2)cn1 (racemic)	< 100 nM
NC(=O)[C@@H]1[C@H](Nc2nc(Nc3cnn(Cc4ccccc4)c3)ncc2Br)[C@H]2C=C[C@@H]1C2	< 100 nM
Cn1cc(Nc2ncc(F)c(N[C@@H]3C[C@H]4CC[C@@H]3C4)n2)cn1.Cn1cc(Nc2ncc(F)c(N[C@H]3C[C@@H]4CC[C@H]3C4)n2)cn1 (mixture of isomers)	100 to 1000 nM
CCn1cc(Nc2ncc(C(F)(F)F)c(N[C@H]3[C@@H](C(N)=O)C[C@H]4C[C@@H]3C4(C)C)n2)cn1	< 100 nM
CCn1cc(Nc2ncc(F)c(N[C@@H]3[C@H](C(N)=O)[C@H]4C=C[C@@H]3C4)n2)cn1.CCn1cc(Nc2ncc(F)c(N[C@H]3[C@@H](C(N)=O)[C@@H]4C=C[C@H]3C4)n2)cn1 (mixture of isomers)	< 100 nM
NC(=O)[C@@H]1[C@H](Nc2nc(Nc3cnn(C4CCNCC4)c3)ncc2Br)[C@H]2C=C[C@@H]1C2	< 100 nM
NC(=O)[C@@H]1[C@H](Nc2nc(Nc3cnn(CCc4cccc(Cl)c4)c3)ncc2Cl)[C@H]2C=C[C@@H]1C2	< 100 nM
Cn1cc(Nc2ncc(C(F)(F)F)c(Nc3sccc3C(N)=O)n2)cn1	< 100 nM

Values compiled from patent US8426408B2.
